Tm values for the sequences below.
# assayComment: melting temperature; fluorescence melt of hairpins on a sequencing array, two-state fit, raised by 9.35 °C to match UV melts
# runConditions: sodium 0.088 M
The reply should contain only the number, in °C.

# count of solved cases: 5
{"columns": ["sequence", "readoutKind", "recordedNumber"],
 "data": [
  ["GCTGCGACGAAAGTCAGC (((..(((....))))))", "Tm", 51.4],
  ["GTTCAAGGAAACTTAAAC (((.(((....))).)))", "Tm", 29],
  ["GCGGTGGGAAACTACCGC (((((.(....).)))))", "Tm", 60.5],
  ["GATCGTTGATACGATC ((((((....))))))", "Tm", 54.3],
  ["GCCTGGCGAAAGCCCTGC ((..(((....)))..))", "Tm", 32.6]
]}

The recorded Tm for GGTTGCGGAAACACAACC (((((.(....).))))) is 48.4

// GGAAGGGGAAACCCTTTC (.(((((....))))).) : Tm value = 44.7

Form field Tm, entry GGAATCGAAAGATGTCC ((((((....))).))) : 32.5

Noted for GAACGCCGAAAGGCTTC (((.(((....)))))) : its Tm reads 44.1

Notebook: GAGTGGGGAAACCTACTC ((((.((....)).)))) , Tm read as 46.4

Value of Tm reported for the sequence GCTTCGGGAAACCAAAGC ((((.((....)).)))) is 41.1

Item: GGTTTAGGAAACTAGACC (((.(((....))).))) | Tm: 37.5

Consider GGTATGTCGAAAGACACC (((..(((....)))))) . Its measured Tm is 34.8

GET /value?item= GAGCACGAAAGTGTCTC ((((((....))).))) &field=Tm returns 53.2

Summary for this sequence, GAAGACGAAAGTCAGTTC ((((((....)))..))) : Tm is 24

Per the record, GTGCCAGCGAAAGCTCAC (((..(((....)))))) has Tm of 52.6

// Tm lookup, sequence = GTTTAGGGAAACTTGAAC (((.(.(....).).))) , result: 34.1

# Tm of GATCACTGCGGTGATC ((((((....)))))) = 61.9

Form: sequence = GGCTGCGGAAACACAGCC (((((.(....).))))) ; Tm = 56

Input GATCTTGTCCAAGATC ((((((....)))))) . Output Tm: 50.1

* * *

# folding enthalpy listing for each entry below
# assayComment: folding enthalpy; higher = less favourable; fluorescence melt of hairpins on a sequencing array, two-state fit
# runConditions: sodium 0.088 M
State the value with its unit after it.

Take a look at these entries with their results.
{"columns": ["sequence", "folding enthalpy"],
 "data": [
  ["GGTAAAACGAAAGTTACC (((..(((....))))))", "-19.1 kcal/mol"],
  ["GCATTCGAAAGAATGTGC ((((((....)))..)))", "-36.8 kcal/mol"],
  ["GGTCGCGGAAACGTGACC ((((.((....)).))))", "-51.2 kcal/mol"],
  ["GATCACGAAAGTGTATC ((((((....))).)))", "-20.6 kcal/mol"],
  ["GCATGGCGAAAGCAACGC ((.(.((....)).).))", "-10.8 kcal/mol"]
]}

For this sequence ( GTTGTCGAAAGACGAAC ((((((....))).))) ), measured folding enthalpy is -17.9 kcal/mol

# folding enthalpy of GCTGACGAAAGTCTAAGC ((((((....)))..))) = -19.1 kcal/mol

// field: folding enthalpy; key: GGTCACGGAAACGTGGTC (..((((....))))..) ; value = -16.8 kcal/mol

Input GTAATCGGAAACGATCAC ((.((((....)))).)) . Output folding enthalpy: -25 kcal/mol

Form: sequence = GCTCTGGGAAACTAGGGC ((.((.(....).)).)) ; folding enthalpy = -27.7 kcal/mol

* * *

# assayComment: folding enthalpy; higher = less favourable; fluorescence melt of hairpins on a sequencing array, two-state fit
# runConditions: sodium 0.088 M
Returns one of T or F; T when folding enthalpy is >= -20 kcal/mol.

Please review the entries below; each comes with its answer.
{"columns": ["sequence", "classAssignment"],
 "data": [
  ["GAGTGTGGAAACGTACTC ((((..(....)..))))", "F"],
  ["GTGTCCCGAAAGGGTCAC (((.(((....))).)))", "F"],
  ["GGGCTAGGAAACTAGTCC ((.((((....)))).))", "F"],
  ["GCAGCTACGAAAGTATGC (((..(((....))))))", "T"]
]}

Next:
Exercise: Identify whether the reported folding enthalpy of the following sequence is -20 kcal/mol or greater: GTACGAGGAAACTTGTGC (.((.((....)).)).)
Key: T

* * *

sequences and their reported folding enthalpy
# assayComment: folding enthalpy; higher = less favourable; fluorescence melt of hairpins on a sequencing array, two-state fit
# runConditions: sodium 0.088 M
Show the value, then the unit it is measured in.

Consider the reported folding enthalpy for these sequences:
{"columns": ["sequence", "folding enthalpy"],
 "data": [
  ["GCGACGATTCGC ((((....))))", "-15.9 kcal/mol"],
  ["GTAGATCGAAAGATGTAC (((.(((....))).)))", "-31.6 kcal/mol"],
  ["GGGCAACGAAAGTTTCCC (((.(((....))).)))", "-32.1 kcal/mol"],
  ["GGATCCGAAAGGAGCTCC ((((((....)))..)))", "-13.4 kcal/mol"],
  ["GGAACGCCGAAAGGCTCC (((..(((....))))))", "-9.39 kcal/mol"],
  ["GCTTAGCGAAAGCCGAGC (((..((....))..)))", "-15.8 kcal/mol"]
]}

For this sequence ( GCTCGTCGAAAGACAAGC (((.(((....))).))) ), measured folding enthalpy is -24.7 kcal/mol

* * *

Some sequences, each annotated with its measured folding enthalpy.
# assayComment: folding enthalpy; higher = less favourable; fluorescence melt of hairpins on a sequencing array, two-state fit
# runConditions: sodium 0.088 M
Record the value in kcal/mol, omitting the unit from your answer.

{"columns": ["sequence", "recordedNumber"],
 "data": [
  ["GCTCGCGAAAGCGCAGC ((((((....))).)))", -19.6],
  ["GGCGACGAAAGTCGCGCC ((((((....)))..)))", -6.6],
  ["GTCTTTCGAAAGAATGAC (((.(((....))).)))", -36.6],
  ["ACCGGGAAACCGGT (((((....)))))", -16.6],
  ["GCGAGGATTCGC ((((....))))", -22.7]
]}

Lookup result for GAGAATGGAAACGTTCTC (((((.(....).))))) ; measured folding enthalpy: -33.9

* * *

# assayComment: melting temperature; fluorescence melt of hairpins on a sequencing array, two-state fit, raised by 9.35 °C to match UV melts
# runConditions: sodium 0.088 M
Listed sequences paired with reported Tm
State just the number; it will be interpreted in °C.

{"columns": ["sequence", "recordedNumber"],
 "data": [
  ["GATCTAGGTGTAGATC ((((((....))))))", 42.9],
  ["GATCGAGCTCTCGATC ((((((....))))))", 55.2],
  ["TACATGAAAATGTA (((((....)))))", 32.1]
]}

Reported Tm ( GATCCGAGGTCGGATC ((((((....)))))) ) = 58.3

Tm reading for GACAGCCGAAAGGCAGTC (((.(((....))).))) : 60.1

The recorded Tm for CGTGCGGAAACGCTTACG ((((((....)))..))) is 38.4

Item: GAAGTCGGAAACGGCTTC ((((.((....)).)))) | Tm: 54.5

* * *

# assayComment: folding enthalpy; higher = less favourable; fluorescence melt of hairpins on a sequencing array, two-state fit
# runConditions: sodium 0.088 M
Assign t to entries whose folding enthalpy meets or exceeds -30 kcal/mol; assign f to the rest.

Worked set:
{"columns": ["sequence", "classAssignment"],
 "data": [
  ["GCGTGCAGACGC ((((....))))", "t"],
  ["GCAGCTCGAAAGAGATGC (((.(((....))).)))", "f"],
  ["GGATGAGGAAACTCATTC (.(((((....))))).)", "t"],
  ["GATCACCAGAGTGATC ((((((....))))))", "f"],
  ["GCGATAGTTCGC ((((....))))", "t"],
  ["GAAGCAGGAAACTGCCTC ((.((((....)))).))", "t"],
  ["CGCCTCGGAAACGAGCG (((.(((....))))))", "t"],
  ["GATCGGGGAAACCCGATC (((((((....)))))))", "f"]
]}

Exercise: Identify whether the reported folding enthalpy of the following sequence is -30 kcal/mol or greater: GGACAACGAAAGTTTCC (((.(((....))))))
Key: t

Exercise: State whether the measured folding enthalpy reaches -30 kcal/mol, counting equality as reaching it, for GATAACGAAAGTTGTATC ((((((....)))..)))
Key: t

Exercise: Hello, I need to know if GATCATCGGCATGATC ((((((....)))))) has measured folding enthalpy not below -30 kcal/mol. Thanks!
Key: f

The measured values listed here are drawn from the array DNA melting data of Ke et al. (doi:10.1101/2024.01.08.574731).
